Numbers sourced from patent US20250346587A1.

# measurementDescription: Microsomal stability assay, human liver microsome
# Format: in vitro ADME
# conditionContext: liver microsomes, pH 7.4, 0.2 mg/mL, 1 μM compound, 37° C., read-out: Clint HLM
recordedEndpoint: microsomal CLint at 1 μM
Report as: number unit

Task item: Can you share its microsomal CLint at 1 μM? I mean this compound: N#Cc1cnc(Nc2cc(-c3cc4ccccc4cc3OCC3CCNC3)[nH]n2)cn1 (stereo not drawn)
Reply: 33 µL/min/mg

Task item: Can you share its microsomal CLint at 1 μM? I mean this compound: N#Cc1cnc(Nc2cc(-c3cc4ccccc4cc3OCCCN)[nH]n2)cn1
Reply: 6 µL/min/mg

Task item: Can you share its microsomal CLint at 1 μM? I mean this compound: N#Cc1cnc(Nc2cc(-c3ccccc3OCC3CCNC3)on2)cn1 (stereo not drawn)
Reply: 37 µL/min/mg

Task item: Can you share its microsomal CLint at 1 μM? I mean this compound: N#Cc1cnc(Nc2cc(-c3ccccc3O[C@H]3CC[C@@H](N)CC3)on2)cn1
Reply: 12 µL/min/mg

Task item: Can you share its microsomal CLint at 1 μM? I mean this compound: COc1cc(C2=CCN(C)CC2)ccc1-c1cc(Nc2cnc(C#N)cn2)on1
Reply: 169 µL/min/mg

Task item: Can you share its microsomal CLint at 1 μM? I mean this compound: CC(C)CC(C)N1CC(Oc2ccccc2-c2cc(Nc3cnc(C#N)cn3)no2)C1 (stereo not drawn)
Reply: 478 µL/min/mg

Task item: Can you share its microsomal CLint at 1 μM? I mean this compound: N#Cc1cnc(Nc2cc(-c3ccccc3OCC3CNC3)on2)cn1
Reply: 26 µL/min/mg

Task item: Can you share its microsomal CLint at 1 μM? I mean this compound: N#Cc1cnc(Nc2cc(-c3ccccc3OC3CC4(CNC4)C3)on2)cn1
Reply: 20 µL/min/mg

Task item: Can you share its microsomal CLint at 1 μM? I mean this compound: N#Cc1cnc(Nc2cc(-c3cc4ccccc4cc3OCC3CNCCO3)[nH]n2)cn1 (stereo not drawn)
Reply: 26 µL/min/mg

Task item: Can you share its microsomal CLint at 1 μM? I mean this compound: CN1CCOC(COc2ccccc2-c2cc(Nc3cnc(C#N)cn3)no2)C1 (stereo not drawn)
Reply: 202 µL/min/mg

Task item: Can you share its microsomal CLint at 1 μM? I mean this compound: N#Cc1cnc(Nc2cc(-c3cc4ccccc4cc3OCC3CCCNC3)[nH]n2)cn1 (stereo not drawn)
Reply: 14 µL/min/mg

Task item: Can you share its microsomal CLint at 1 μM? I mean this compound: N#Cc1cnc(Nc2cc(-c3cc4ccccc4cc3OCC3CNC3)[nH]n2)cn1
Reply: 21 µL/min/mg
